# Measured target: menin/MLL (terbium chelate-labeled menin, FITC-MBM1 peptide) (Homo sapiens (Human))
# Sequence (O00255 other isoform, or with tags, fused parts or gaps): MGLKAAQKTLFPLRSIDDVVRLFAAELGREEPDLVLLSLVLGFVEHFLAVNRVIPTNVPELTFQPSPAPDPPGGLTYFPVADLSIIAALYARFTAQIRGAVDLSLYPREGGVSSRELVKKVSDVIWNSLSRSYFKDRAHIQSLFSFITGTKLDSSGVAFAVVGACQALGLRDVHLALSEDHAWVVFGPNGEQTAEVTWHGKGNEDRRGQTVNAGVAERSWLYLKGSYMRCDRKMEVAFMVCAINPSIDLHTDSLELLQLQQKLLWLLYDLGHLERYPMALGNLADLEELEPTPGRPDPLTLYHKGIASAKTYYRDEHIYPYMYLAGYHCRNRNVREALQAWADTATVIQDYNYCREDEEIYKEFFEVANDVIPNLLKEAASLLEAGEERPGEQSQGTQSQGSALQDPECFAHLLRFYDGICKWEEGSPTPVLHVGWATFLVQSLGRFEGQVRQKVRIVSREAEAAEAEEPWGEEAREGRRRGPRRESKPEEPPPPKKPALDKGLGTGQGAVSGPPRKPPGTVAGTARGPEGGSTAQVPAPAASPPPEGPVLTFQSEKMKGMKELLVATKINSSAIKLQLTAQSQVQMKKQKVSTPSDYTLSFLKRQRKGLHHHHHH
# Assay notes: Menin/MLL homogenous time-resolved fluorescence (HTRF) assay;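 further: IC50 from percent inhibition of HTRF signal, normalized between wells without competitor and wells with a saturating competitor that displaces FITC-MBM1 from His-tagged menin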
# Assay type: binding
# Condition set: HTRF-30 min incubation IC50, 30 min incubation
Structures can show the parent of a compound that is named as a salt.
Property: IC50

> print(dat)
                                   compound                           measured.target  obs.value
1  CCN(C(=O)c1cc(F)ccc1Oc1nncnc1N1CCC2(C1)CN(C(C(C)C)C(C)CCN(C)CCOC)C2)C(C)C (single isomer, unassigned) [Compound 265]  menin/MLL (terbium chelate-labeled menin, FITC-MBM1 peptide) (Homo sapiens (Human))    0.29 nM
2  CCN(C(=O)c1cc(F)ccc1Oc1nnc(NC)nc1N1CCC2(C1)CN([C@H](CCCN)C(C)C)C2)C(C)C [Compound 409, hydrochloride]  menin/MLL (terbium chelate-labeled menin, FITC-MBM1 peptide) (Homo sapiens (Human))    0.12 nM
3  CCN(C(=O)c1cc(F)ccc1Oc1nncnc1N1CCC2(C1)CN([C@H](CCCN(C)C[C@H](C)OC)C(C)C)C2)C(C)C (single isomer, unassigned)  menin/MLL (terbium chelate-labeled menin, FITC-MBM1 peptide) (Homo sapiens (Human))    0.18 nM
4  CCN(C(=O)c1cc(F)ccc1Oc1nncnc1N1CCC2(C1)CN([C@H](CCCN(C)C[C@@H](C)C(=O)NC)C(C)C)C2)C(C)C [Compound 195, fumarate]  menin/MLL (terbium chelate-labeled menin, FITC-MBM1 peptide) (Homo sapiens (Human))    ~0.4 nM
5  CCN(C(=O)c1cc(F)ccc1Oc1nncnc1N1CCC2(C1)CN([C@H](C[C@H](C)CN(C)CCOC)C(C)C)C2)C(C)C (single isomer, unassigned)  menin/MLL (terbium chelate-labeled menin, FITC-MBM1 peptide) (Homo sapiens (Human))    0.26 nM

###

# Tested on: KO-52 cells
# Assay notes: Proliferation assay (spheroid growth, 8 days), KO-52 control cell line
# Assay type: cell-based, human
# Condition set: Homo sapiens, […], read-out: spheroid assay_OneTime KO-52 IC50
pIC50: −log10 of the molar value. Counter-ions that a name gives are not always drawn.
Property: pIC50

Compound	Obs value
CCN(C(=O)c1cc(F)ccc1Oc1nncnc1N1CCC2(C1)CN([C@@H](CN)C(C)C)C2)C(C)C (single isomer, unassigned)	< 4.82
CCN(C(=O)c1cc(F)ccc1Oc1nncnc1N1CCC2(C1)CN([C@@H](CCCN(C)C)C(C)C)C2)C(C)C [Compound 5, formate]	< 4.82
CCN(C(=O)c1cc(F)ccc1Oc1nncnc1N1CCC2(C1)CN([C@H](CCCN(C)[C@H](CO)COC)C(C)C)C2)C(C)C	< 4.82
CCN(C(=O)c1cc(F)ccc1Oc1nncnc1N1CCC2(C1)CN([C@H](CCCN)C(C)C)C2)C(C)C [Compound 1, formate]	< 4.82
CCN(C)CCC[C@@H](C(C)C)N1CC2(CCN(c3ncnnc3Oc3ccc(F)cc3C(=O)N(CC)C(C)C)C2)C1 (single isomer, unassigned)	< 4.82
CCN(C(=O)c1cc(F)ccc1Oc1nncnc1N1CCC2(C1)CN([C@H](CCCN(C)CC(=O)N(C)C)C(C)C)C2)C(C)C	4.86
CCN(C(=O)c1cc(F)ccc1Oc1nncnc1N1CCC2(C1)CN([C@H](CCCN(C)C(COC)COC)C(C)C)C2)C(C)C [Compound 161, fumarate]	< 4.82
COCCN(C)CCC[C@@H](C(C)C)N1CC2(CCN(c3ncnnc3Oc3ccc(F)cc3C(=O)N(C(C)C)C(C)C)C2)C1 (single isomer, unassigned)	< 4.82
CCN(C(=O)c1cc(F)ccc1Oc1nncnc1N1CCC2(C1)CN([C@H](CCCN(C)C[C@@H](C)OC)C(C)C)C2)C(C)C (single isomer, unassigned)	5.15
CCN(C(=O)c1cc(F)ccc1Oc1nncnc1N1CCC2(C1)CN([C@H](CCCN(C)[C@@H](C)CC(=O)NC)C(C)C)C2)C(C)C [Compound 193, fumarate]	< 4.82
CCN(CC)C[C@H](O)C[C@@H](C(C)C)N1CC2(CCN(c3ncnnc3Oc3ccc(F)cc3C(=O)N(CC)C(C)C)C2)C1 (single isomer, unassigned)	< 4.82
CCN(C(=O)c1cc(F)ccc1Oc1nncnc1N1CCC2(C1)CN([C@H](CCCN(C)C(CO)CO)C(C)C)C2)C(C)C [Compound 256, fumarate]	< 4.82
CCN(C(=O)c1cc(F)ccc1Oc1nncnc1N1CCC2(C1)CN([C@H](CCCN(C)C[C@H](C)C(=O)N(C)C)C(C)C)C2)C(C)C (single isomer, unassigned)	< 4.82
CCN(C(=O)c1cc(F)ccc1Oc1nncnc1N1CCC2(C1)CN([C@H](CCCCN)C(C)C)C2)C(C)C (single isomer, unassigned)	< 4.82
CC(C)[C@H](CCC(N)=O)N1CC2(CCN(c3ncnnc3Oc3ccc(F)cc3-c3cncnc3C3CC3)C2)C1 (single isomer, unassigned)	< 4.82
CCN(C(=O)c1cc(F)ccc1Oc1nncnc1N1CCC2(C1)CN([C@H](CCCN(C)CC(C)OC)C(C)C)C2)C(C)C (some centres unmarked) [Compound 252, oxalate]	5.14
CCN(C(=O)c1cc(F)ccc1Oc1nncnc1N1CCC2(C1)CN([C@H](CCCNCC(F)(F)F)C(C)C)C2)C(C)C	5.17
CCCN(C)C[C@H](O)C[C@H](C(C)C)N1CC2(CCN(c3ncnnc3Oc3ccc(F)cc3C(=O)N(CC)C(C)C)C2)C1 (single isomer, unassigned)	5.02
CC(C)[C@H](CCCN(C)C)N1CC2(CCN(c3ncnnc3Oc3ccc(F)cc3C(=O)N(C(C)C)C(C)C)C2)C1 (single isomer, unassigned)	< 4.82
CCN(C(=O)c1cc(F)ccc1Oc1nncnc1N1CCC2(C1)CN([C@H](CCCN(C)CC(F)(F)F)C(C)C)C2)C(C)C	< 4.82
CCN(C(=O)c1cc(F)ccc1Oc1nnccc1N1CCC2(C1)CN([C@@H](CCCN(C)CCOC)C(C)C)C2)C(C)C (single isomer, unassigned)	< 4.82
CCN(C(=O)c1cc(F)ccc1Oc1nncnc1N1CCC2(C1)CN([C@H](CCCN(C)[C@H](C)COC)C(C)C)C2)C(C)C [Compound 154, fumarate]	< 4.82
CCN(C(=O)c1cc(F)ccc1Oc1nncnc1N1CCC2(C1)CN([C@H](CCC(C)(C)N(C)C)C(C)C)C2)C(C)C (single isomer, unassigned)	4.89
